# measurement-target: FGFR1 (UniProt P11362)
# Sequence (P11362 whole entry, looked up): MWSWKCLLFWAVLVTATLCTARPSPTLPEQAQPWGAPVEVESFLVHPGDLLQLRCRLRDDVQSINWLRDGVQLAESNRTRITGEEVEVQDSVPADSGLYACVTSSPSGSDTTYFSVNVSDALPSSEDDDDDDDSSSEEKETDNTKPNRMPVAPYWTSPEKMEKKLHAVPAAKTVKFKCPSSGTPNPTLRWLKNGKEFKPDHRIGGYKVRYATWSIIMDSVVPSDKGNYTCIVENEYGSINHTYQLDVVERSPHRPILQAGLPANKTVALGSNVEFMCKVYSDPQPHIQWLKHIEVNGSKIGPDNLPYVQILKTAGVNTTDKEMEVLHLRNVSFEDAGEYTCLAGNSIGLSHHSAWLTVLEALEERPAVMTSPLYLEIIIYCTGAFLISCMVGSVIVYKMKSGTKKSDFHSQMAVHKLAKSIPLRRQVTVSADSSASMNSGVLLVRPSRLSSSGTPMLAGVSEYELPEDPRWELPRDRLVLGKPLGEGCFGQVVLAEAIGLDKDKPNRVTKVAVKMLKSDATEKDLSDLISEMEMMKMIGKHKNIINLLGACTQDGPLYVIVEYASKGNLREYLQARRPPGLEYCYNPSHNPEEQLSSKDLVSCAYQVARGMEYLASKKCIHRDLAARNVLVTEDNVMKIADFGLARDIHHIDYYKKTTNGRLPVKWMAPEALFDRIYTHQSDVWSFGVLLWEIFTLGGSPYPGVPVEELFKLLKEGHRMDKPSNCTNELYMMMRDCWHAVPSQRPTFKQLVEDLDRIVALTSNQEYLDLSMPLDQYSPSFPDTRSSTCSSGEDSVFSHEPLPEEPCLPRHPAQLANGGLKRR
# assay: phosphorylation enrichment, bacterial display (enrichment ratio); higher = better substrate or ligand; peptides without Tyr show the background;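 further: 11-residue human phosphosite peptides and single-mutation variants displayed on the E. coli surface, counted by deep sequencing, each peptide's frequency after selection divided by its frequency in the unselected input library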;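 further: frequency after pTyr selection over input frequency; kinase dosed for 20-30% of maximal phosphorylation in three min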
phosphorylation enrichment of 0.5 or higher: met. Under 0.5: not met.

1) GASRRYGSGVS [NEU1_Y242_W240R] = not met
2) HKLSFNEFDFE [BTK_Y40_Y40N_YF] = met
3) QRALLYEDALY [UNC13D_Y56] = met

Decide: is the reported value of phosphorylation enrichment for TINPIYEHVGY [CHN1_Y143] equal to or greater than 0.5?
met

Decide: is the reported value of phosphorylation enrichment for QFQEKYKQVEQ [HCN4_Y531_YF] equal to or greater than 0.5?
met

Decide: is the reported value of phosphorylation enrichment for LKETGYVVERP [BCLAF1_Y466] equal to or greater than 0.5?
not met

Decide: is the reported value of phosphorylation enrichment for RLLRGHDQYAY [HLA-B_Y137] equal to or greater than 0.5?
met

Decide: is the reported value of phosphorylation enrichment for YGGLRYGYGGL [KRTAP20-2_Y13_V17G] equal to or greater than 0.5?
not met

----------
Reported phosphorylation enrichment values for a set of sequences
# Tested on: c-Src
# assay: phosphorylation enrichment, bacterial display (enrichment ratio); higher = better substrate or ligand; peptides without Tyr show the background
Provide a numeric answer; units are not to be included.

Reference set, count: 6
1) VFPATYHPDHW [EFCAB12_Y544_YF] = 0.458
2) SARSAYQEAMD [SFN_Y151] = 0.353
3) DPADRYLIEQC [CDKL5_Y286_T288I] = 0.518
4) NDQPDYDSVAS [GIT2_Y392] = 0.992
5) YASALYGQRRS [FGF11_Y162_R163G] = 0.784
6) TIQIMYGCDVG [HLA-A_Y123] = 0.633

Any idea what its phosphorylation enrichment is? The sequence is RGGWAYVLHPT [TRMT61A_Y67_V66A]
0.671

Any idea what its phosphorylation enrichment is? The sequence is PELIDYGKLWK [ACTN1_Y193_R197W]
0.59

Any idea what its phosphorylation enrichment is? The sequence is YFRDGHMPRQY [GSS_Y270_Y270H]
0.401

Any idea what its phosphorylation enrichment is? The sequence is KAIMTYVFSFY [ACTN4_Y260_S262F]
0.507

Any idea what its phosphorylation enrichment is? The sequence is VIKDKYPKARY [APTX_Y209]
0.454

Any idea what its phosphorylation enrichment is? The sequence is VHNLDYFKETT [FGFR3_Y647_K650E_YF]
0.445

Any idea what its phosphorylation enrichment is? The sequence is FLAVGDHKPHI [IDS_Y225_Y225D]
0.327

Any idea what its phosphorylation enrichment is? The sequence is GFEEAYSVSKK [PAFAH1B1_Y28_F31S_YF]
0.65

Any idea what its phosphorylation enrichment is? The sequence is TRSYDYTEGGD [FGF7_Y58_M59T]
0.375

Any idea what its phosphorylation enrichment is? The sequence is AMCVRYDGVEV [ADAMTSL2_Y594]
0.542

----------
# measurement-target: FGFR1 (UniProt P11362)
# assay: phosphorylation enrichment, bacterial display (enrichment ratio); higher = better substrate or ligand; peptides without Tyr show the background
assay-readout: phosphorylation enrichment

Reference set, count: 5
1. GIYEDYVEGLR [MYL6_Y89_T85I] = 0.965
2. EEQKKYYNAMK [SCN5A_Y1494] = 0.509
3. LLREWYLPDPF [SIX3_Y225_Q227P_YF] = 1.25
4. ASGKYYAMKIL [AKT3_Y174] = 0.74
5. ACCLLYCGDVV [TUBA4A_Y319_R320C] = 1.13

Any idea what its phosphorylation enrichment is? The sequence is GHEFIYVDRMQ [PDGFRB_Y581_P584R_YF]
0.555

Any idea what its phosphorylation enrichment is? The sequence is IIEDPYFGNDF [ACP1_Y132_S137F_YF]
0.791
